Provenance of the data: PubChem BioAssay AID1813

test: 5' untranslated region of α-synuclein, MLPCN primary screen (AID 1813); details: alpha-synuclein 5'UTR reporter, inhibitor activity; tested at 7.5 µM;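 also: H4 neuroglioblastoma cells stably carrying SNCA 5'UTR luciferase fusion; 0% = DMSO wells and 100% = positive control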
In all, about 300,000 compounds went through this assay and about 2,500 (0.83%) were called active. Rule as the data show it: active = inhibition above about 60%; inconclusive = no clear call, values can overlap the other calls; inactive = below that. This excerpt belongs to a sample that is enriched for actives.
Write down the outcome that applies. Available outcomes: active, inactive

# count of solved cases: 6
>>> label("CCOc1cc(NC(=O)c2ccccc2C(=O)O)c(OCC)cc1NC(=O)c1ccccc1F")
"inactive"
>>> label("CSc1nc2ccc(S(=O)(=O)N3CCc4ccccc43)cc2s1")
"inactive"
>>> label("COc1ccc2c3c1O[C@H]1C[C@@H](O)C=C[C@@]31CCN(C)C2")
"active"
>>> label("OCCC1CN(Cc2ccc3nsnc3c2)CCN1C1CCCCC1 (stereo unspecified)")
"inactive"
>>> label("COc1ccc2sc(N(CCCN(C)C)C(=O)c3ccc(S(=O)(=O)N(C)C4CCCCC4)cc3)nc2c1")
"inactive"
>>> label("CN(C)CCCN(C(=O)c1ccc(S(=O)(=O)N2CCCCCC2)cc1)c1nc2ccc(Br)cc2s1")
"active"

Lookup: I'd appreciate the recorded outcome for O=C(COC(=O)c1ccc(Cl)nc1)NCc1ccc2c(c1)OCO2 from this test.
Found: inactive

* * *

test: 5' untranslated region of α-synuclein, MLPCN primary screen (AID 1813); details: alpha-synuclein 5'UTR reporter, inhibitor activity; hits give high values; tested at 7.5 µM;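 also: H4 neuroglioblastoma cells stably carrying SNCA 5'UTR luciferase fusion; 0% = DMSO wells and 100% = positive control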
The whole screen tested about 300,000 compounds, of which about 2,500 (0.83%) were called active. Only a selection was taken, and actives are over-represented in it overall.
endpointLabel: inhibition (%)
Give bare numbers, in %.

Give me inhibition for each of these compounds, listed below.
1. Cc1ccc(C)c(NC(=O)COC(=O)Cn2c(C)csc2=O)c1
2. O=C(OCC(=O)c1cccs1)C1=COCCO1
3. O=C(NC(Nc1nc2ccc([N+](=O)[O-])cc2s1)(C(F)(F)F)C(F)(F)F)c1ccccc1
4. COc1ccc(CN(C)C(C)C(=O)NC2CCCc3ccccc32)cc1 (stereo unspecified)
5. CCC(C)(C)c1ccc(Oc2ccc(NC(=O)COC(=O)C3=COCCO3)cc2)cc1
6. COc1cccc(C(=O)n2ccc(-c3cccs3)n2)c1

Found:
3.94
-103
94.1
8.59
90.6
2.56

* * *

test: 5' untranslated region of α-synuclein, MLPCN primary screen (AID 1813); details: alpha-synuclein 5'UTR reporter, inhibitor activity; hits give high values; tested at 7.5 µM;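 also: H4 neuroglioblastoma cells stably carrying SNCA 5'UTR luciferase fusion; 0% = DMSO wells and 100% = positive control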
Screen size: about 300,000 compounds; about 2,500 (0.83%) were called active. This excerpt belongs to a sample that is enriched for actives.
Binning scheme for inhibition: low value = under -20%, medium value = from -20% up to 50%, high value = 50% and over

Solved cases (8 shown):
>>> label("COc1ccc(NC(=O)C(C)SCc2ccccc2)cc1 (stereo unspecified)")
"medium value"
>>> label("CCOC(=O)N1CCN(S(=O)(=O)c2ccc(Br)cc2)CC1")
"medium value"
>>> label("O=c1c2ccccc2nc2n1C1(CCCCC1)Cc1ccccc1-2")
"medium value"
>>> label("O=S(=O)(c1ccc(Br)cc1)N1CCC(c2nc3ccccc3[nH]2)CC1")
"high value"
>>> label("Cc1ccc2nc(-c3ccncc3)cc(C(=O)Nc3ccc4c(c3)OCCO4)c2c1")
"medium value"
>>> label("CCOC(=O)N1CCN(S(=O)(=O)c2ccc(C(=O)Nc3ccc(F)cc3F)cc2)CC1")
"high value"
>>> label("COc1cc(/C=N/N=C(\\N)c2nonc2N)cc(OC)c1OC")
"medium value"
>>> label("CCC1CO/C(=C(\\C(=C(Cl)Cl)N2CCOCC2)[N+](=O)[O-])N1 (stereo unspecified)")
"medium value"

Lookup: Note: place this compound into its band. Item: CN(C(=O)c1cc2c(=O)n3ccccc3nc2s1)C1CCCCC1
Found: low value

Lookup: Now consider CN(c1ccc2nc3ccccc3c(=O)n2n1)C1CCCCC1 and answer again.
Found: high value

Lookup: Moving on to the next compound: CCN(CC)CCNCc1ccc(OCc2ccc(Cl)nc2)c(OC)c1
Found: low value
